- target-or-system: Nuclear receptor subfamily 1 group I member 2 (Homo sapiens) (UniProt O75469)
- assay-notes: Human pregnane X receptor (PXR) activation by small molecules, qHTS assay (AID 1346985); also: nearly all actives have a fitted effect of over 40% in size; also: potency is read from the fitted curve at half-maximal effect
- condition-summary: DPX-2 HepG2 CYP3A4-luciferase, 24 h; series mostly up to 38.3 µM
Results filed as inconclusive are left out. Activity calls are given as the source filed them. Calls follow the shape of the dose curve; as a rule, active = well fitted activation curve with a large enough effect in the repeat runs; inconclusive = weak or mixed curves; inactive = flat fitted curve, though single readings scatter.
property: Potency

[[record]]
compound = "CCCCN(CCCC)CCCOC(=O)c1ccc(N)cc1"
observed_value = "inactive"

[[record]]
compound = "O=C(NCCCN1CCOCC1)c1ccc(Cl)cc1"
observed_value = "inactive"

[[record]]
compound = "C[C@@H]1C[C@H]2[C@@H]3CCC4=CC(=O)C=C[C@]4(C)[C@@]3(F)[C@@H](O)C[C@]2(C)[C@H]1C(=O)CO"
observed_value = "inactive"

[[record]]
compound = "O=C(CCCN1CCC(O)(c2ccc(Br)cc2)CC1)c1ccc(F)cc1"
observed_value = "11.2 µM (active)"

[[record]]
compound = "CC(=O)Oc1ccc(C(=C2CCCCC2)c2ccc(OC(C)=O)cc2)cc1"
observed_value = "inactive"

[[record]]
compound = "Cc1c(C(=O)NN2CCCCC2)nn(-c2ccc(Cl)cc2Cl)c1-c1ccc(Cl)cc1"
observed_value = "inactive"

[[record]]
compound = "CCC(C(=O)OCCOCCN(CC)CC)c1ccccc1 (stereo not given)"
observed_value = "inactive"

[[record]]
compound = "CC(=O)[C@H]1CC[C@H]2[C@@H]3C[C@H](C)C4=CC(=O)CC[C@]4(C)[C@H]3[C@@H](O)C[C@]12C"
observed_value = "inactive"

[[record]]
compound = "O=[N+]([O-])c1cccc(S(=O)(=O)NCCNS(=O)(=O)c2cccc([N+](=O)[O-])c2)c1"
observed_value = "14.1 µM (active)"

[[record]]
compound = "COC(=O)[C@@H]1CC2=CC(=O)CC[C@]2(C)[C@@]23O[C@@H]2C[C@@]2(C)[C@@H](CC[C@@]24CCC(=O)O4)[C@H]13"
observed_value = "inactive"


**Q:** Respond only with Potency recorded for O=C1OCCN1/N=C/c1ccc([N+](=O)[O-])o1
**A:** inactive

**Q:** Respond only with Potency recorded for C[N+]1(C)CCC(=C(c2ccccc2)c2ccccc2)CC1
**A:** inactive

**Q:** Respond only with Potency recorded for Cc1cc(O)c(C(C)C)cc1Cl
**A:** inactive

###

- target-or-system: Estrogen receptor (Homo sapiens) (UniProt P03372)
- Sequence (P03372 whole entry, looked up): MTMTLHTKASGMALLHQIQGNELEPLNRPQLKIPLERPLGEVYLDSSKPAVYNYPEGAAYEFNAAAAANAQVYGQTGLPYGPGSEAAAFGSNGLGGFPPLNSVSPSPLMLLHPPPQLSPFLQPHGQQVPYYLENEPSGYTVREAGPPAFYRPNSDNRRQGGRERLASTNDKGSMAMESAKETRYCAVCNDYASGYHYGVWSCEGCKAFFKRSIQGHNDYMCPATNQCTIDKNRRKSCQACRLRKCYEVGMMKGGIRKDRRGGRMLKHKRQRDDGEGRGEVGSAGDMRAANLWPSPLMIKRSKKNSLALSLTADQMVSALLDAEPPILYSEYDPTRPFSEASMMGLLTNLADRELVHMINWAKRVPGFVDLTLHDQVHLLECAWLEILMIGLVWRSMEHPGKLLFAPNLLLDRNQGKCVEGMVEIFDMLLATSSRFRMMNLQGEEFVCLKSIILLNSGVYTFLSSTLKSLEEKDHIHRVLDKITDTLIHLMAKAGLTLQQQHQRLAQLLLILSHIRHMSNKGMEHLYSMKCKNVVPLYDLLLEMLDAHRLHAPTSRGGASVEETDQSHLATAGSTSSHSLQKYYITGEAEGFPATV
- assay-notes: qHTS assay to identify small molecule agonists of the estrogen receptor alpha (ER-alpha) signaling pathway using the BG1 cell line (AID 743079); also: nearly all actives have a fitted effect of over 20% in size
- condition-summary: BG1Luc4E2 cells, ERE-luciferase agonist, 22 h
Inconclusive results are not listed. Calls of active or inactive are those of the source. Calls come from the whole dose curve; as a rule, active = well fitted activation curve with a large enough effect in the repeat runs; inconclusive = weak or mixed curves, or effect the other way; inactive = no such curve, though single readings can be large or run the other way.
In this exercise, the only acceptable responses are Yes (active), No (inactive)

Worked examples, 5 molecules total:
[[record]]
molecule = "Brc1cc(-c2ccc(Br)c(Br)c2Br)cc(Br)c1Br"
group = "No"

[[record]]
molecule = "C=CCOC(=O)/C=C\\C(=O)OCC=C"
group = "No"

[[record]]
molecule = "CCCCCCCCCCCCCCC[C@H](O)[C@@H](N)CO"
group = "No"

[[record]]
molecule = "C=CC(C)(O)CCCC(C)CCCC(C)CCCC(C)C (stereo not drawn)"
group = "No"

[[record]]
molecule = "O=C(Nc1ccccc1)Nc1ccccc1"
group = "Yes"


# input for lookup
**Q:** Would you mind telling me which call this test gave COCC(O)CO (stereo not drawn) ?
**A:** No
